# testMethodNotes: folding enthalpy; higher = less favourable; fluorescence melt of hairpins on a sequencing array, two-state fit
# experimentalParameters: sodium 0.088 M
Outcome label depends on folding enthalpy relative to -30 kcal/mol: at/above gives True, below gives False.

{"recordSequence": "GGGTAAACGAAAGTTCCC (((..(((....))))))", "category": "True"}
{"recordSequence": "GGACGGGGAAACCCGCCC ((.((((....)))).))", "category": "False"}
{"recordSequence": "GGACGCGGAAACACGTCC (((((.(....).)))))", "category": "False"}

Is the recorded value of folding enthalpy equal to or greater than -30 kcal/mol for this sequence? GTGACAGCGAAAGCTCAC (((..(((....))))))
True

Is the recorded value of folding enthalpy equal to or greater than -30 kcal/mol for this sequence? GATATAGAAATATATC ((((((....))))))
True
